Where do these numbers come from? They come from PubChem BioAssay AID651597.

- TARGET_OR_SYSTEM: Luciferin 4-monooxygenase (Photinus pyralis)
- PROCEDURE_TEXT: qHTS of Nrf2 Activators: Hit Validation in Secondary FLuc Assay; note: nearly all actives have a fitted effect of over 65% in size
- ASSAY_SETUP: firefly luciferase inhibition counter-screen, luminescence; series mostly up to 57.5 µM
Screen size: about 1,100 compounds; about 390 (35%) were called active. Inconclusive results (about 30%) are left out. Calls come from the whole dose curve; as a rule, active = well fitted inhibition curve with a large enough effect; inconclusive = small, poorly fitted or top-dose-only effect; inactive = flat fitted curve, though single readings scatter. The list shows a part of the results.
I would appreciate it if you answered using one of these outcomes: active, inactive

Input: Could you check what this test reported for `COc1ccc(Cl)cc1C(=O)NC(=S)Nc1nc(C)cc(C)n1` ?
Output: inactive

Input: // repeat for `Fc1cccc(Nc2cc(-n3cccn3)ncn2)c1` and report
Output: active

Input: // repeat for `c1coc(-c2ccnc3nc(-n4cccc4)nn23)c1` and report
Output: inactive

Input: // repeat for `CC(=O)Nc1ccc(O)c(-c2nc3ccccc3s2)c1` and report
Output: active

Input: // repeat for `CN(C)CCNC(=O)c1cccc2ccc(-c3ccc(-c4ccccc4)cc3)nc12` and report
Output: inactive

Input: // repeat for `Clc1ccc2c(NCc3ccccn3)ncnc2c1` and report
Output: inactive

Input: // repeat for `Clc1ccc(C=Cc2ccccn2)c(Cl)c1` and report
Output: active

Input: // repeat for `COc1ccc(Cl)cc1C(=O)O/N=C(\N)c1ccccn1` and report
Output: active

Input: // repeat for `N#Cc1c(-c2ccccc2)cc(-c2ccccc2)[nH]c1=O` and report
Output: inactive

Input: // repeat for O=C1C=C(Nc2cccc(Cl)c2)CC(c2ccco2)C1 (stereo not given) and report
Output: inactive

Input: // repeat for `O=C(NN=Cc1cccc([N+](=O)[O-])c1)c1cccc2ccccc12` and report
Output: inactive

Input: // repeat for `Oc1ccc2ccccc2c1N=Nc1ccccn1` and report
Output: active

Input: // repeat for `Cc1ccc(C)c(NC(=O)COC(=O)c2cc(=O)c3ccccc3o2)c1` and report
Output: inactive

Input: // repeat for `Cc1c(C(=O)NCc2ccco2)oc2c(Cl)cccc12` and report
Output: inactive

Input: // repeat for `CCOC(=O)c1cnc(-c2ccccc2)nc1-c1ccccc1` and report
Output: inactive

Input: // repeat for `O=C(CC(=O)Nc1ccccc1[N+](=O)[O-])Nc1ccccc1[N+](=O)[O-]` and report
Output: inactive

Input: // repeat for `COc1ccc(OC)c(C(=O)Nc2c(O)ccc3ccccc23)c1` and report
Output: active

Input: // repeat for `c1coc(-c2ccnc(-n3cccc3)n2)c1` and report
Output: active

Input: // repeat for c1ccc(-c2ccc3c(c2)NC(C2Nc4cc(-c5ccccc5)ccc4O2)O3)cc1 (stereo not given) and report
Output: inactive

Input: // repeat for `Clc1ccsc1-c1csc(-c2cccnc2)n1` and report
Output: active

Input: // repeat for `Cc1ccsc1-c1ccnc(-n2cccc2)n1` and report
Output: active

Input: // repeat for `O=[N+]([O-])c1cccc(C=NN=Cc2ccccc2O)c1` and report
Output: active

Input: // repeat for `Clc1ccc2nc(-c3ccco3)c(Cc3ccccc3)n2c1` and report
Output: active

Input: // repeat for `CN(C)c1oc(/C=C/c2ccccc2)nc1C#N` and report
Output: active

Input: // repeat for `Clc1ccc(C=Cc2ccccn2)cc1` and report
Output: active

Input: // repeat for CC1(C)C2C/C(=N\O)C(C)(/[N+]([O-])=C/c3cccc([N+](=O)[O-])c3)CC21 (stereo not given) and report
Output: inactive

Input: // repeat for `COc1ccccc1C(=O)O/N=C(\N)c1ccc(Cl)cc1` and report
Output: active

Input: // repeat for `O=C(/C=C/c1ccccc1Cl)Nc1nc(-c2cccs2)ns1` and report
Output: active

Input: // repeat for `COc1ccccc1Cc1c(-c2ccco2)nc2ccc(Cl)cn12` and report
Output: active

Input: // repeat for `Fc1cccc(Nc2nc3ccccc3n3cnnc23)c1` and report
Output: inactive

Input: // repeat for `COc1cc(/C=N/Nc2nc3ccccc3s2)ccc1OC(=O)c1ccccc1F` and report
Output: active

Input: // repeat for `CCc1ccc(/C=C/c2c([N+](=O)[O-])c(=O)n(C)c(=O)n2C)cc1` and report
Output: inactive

Input: // repeat for `N#Cc1sc2nc(-c3ccccc3)cc(C(F)(F)F)c2c1N` and report
Output: inactive

Input: // repeat for `CS/C(=C\C(=O)c1ccco1)Nc1ccccc1Cl` and report
Output: active

Input: // repeat for N#CC1CC(c2ccccc2)=NN1c1ccccc1[N+](=O)[O-] (stereo not given) and report
Output: active

Input: // repeat for `Cc1ccc(S(=O)(=O)CCSC(=N)N)cc1` and report
Output: inactive

Input: // repeat for `Cc1cc(=O)n2nc(-c3ccccc3)sc2c1C#N` and report
Output: active

Input: // repeat for `COc1ccc(Cl)cc1NC(=O)c1cc(C)no1` and report
Output: inactive

Input: // repeat for `Cn1c(NCc2ccc3occc3c2)nc2cc(-c3cccc(C(F)(F)F)c3)sc2c1=O` and report
Output: inactive

Input: // repeat for `Cc1nc(C)c(C(=O)N/N=C/c2ccco2)s1` and report
Output: inactive

---

- TARGET_OR_SYSTEM: Luciferin 4-monooxygenase (Photinus pyralis) (UniProt P08659)
- PROCEDURE_TEXT: qHTS of Nrf2 Activators: Hit Validation in Secondary FLuc Assay; note: nearly all actives have a fitted effect of over 65% in size
- ASSAY_SETUP: firefly luciferase inhibition counter-screen, luminescence; series mostly up to 57.5 µM
Screen size: about 1,100 compounds; about 390 (35%) were called active. Another 30% or so got no clear call; they are omitted. The call rests on the fitted dose curve; in most records, active means well fitted inhibition curve with a large enough effect; inconclusive means small, poorly fitted or top-dose-only effect; inactive means flat fitted curve, though single readings scatter. The list shows a part of the results.
I would appreciate it if you answered using one of these outcomes: active, inactive

Input: Could you check what this test reported for `COC(=O)c1ccccc1NC(=O)c1cccs1` ?
Output: inactive

Input: // repeat for `Cc1ccc(C)c(-c2nnc(NC(=O)c3ccc([N+](=O)[O-])o3)o2)c1` and report
Output: inactive

Input: // repeat for `Fc1ccccc1-c1nc(-c2ccc(Cl)cc2)no1` and report
Output: active
